Recorded values, source patent US5036091A.

# ED50 per record follows
Test system: 5-HTP potentialisation
testProtocol: 5-HTP potentialisation assay in rat (antidepressive activity)
Format: in vivo
assaySetup: po, compound given orally, 5-HTP intra-peritoneal 1 h after the first treatment, read-out: ED50 (dose which brings about in 50% of the animals generalized shakings or stereotypies consecutive to 5-HTP)

| compound | ED50 (mg/kg) |
| --- | --- |
| COCC1CN(c2ccc(OCCC(O)C(F)(F)F)cc2)C(=O)O1 (racemic) | 1.1 |
| COC[C@H]1CN(c2ccc(OCC[C@@H](O)C(F)(F)F)cc2)C(=O)O1 | 0.14 |
| CCOC[C@H]1CN(c2ccc(OCC[C@@H](O)C(F)(F)F)cc2)C(=O)O1 | 2.4 |
| COCC1CN(c2ccc(OCCC(C)O)cc2)C(=O)O1 (racemic) | 1.9 |
| COC[C@H]1CN(c2ccc(OCC[C@H](C)O)cc2)C(=O)O1 | 0.68 |
| COC[C@H]1CN(c2ccc(CCC[C@@H](C)O)cc2)C(=O)O1 | 1.9 |
| Cc1cccc(N2CC(CO)OC2=O)c1 (stereo not shown) [TOLOXATONE, reference compound] | 30 |
